Exercise: for every item that follows, state its recorded protein stability index.
B1: SNAP91 (parent)
chain: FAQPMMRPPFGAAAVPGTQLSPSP

Variants of: B1
Protocol Description: protein stability index of a GFP-peptide fusion (GPS, HEK-293T) (PSI 1-6); higher = more stable;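 also: lentivirally expressed fusions sorted by FACS into six bins by GFP to DsRed ratio, PSI derived from sequencing read proportions per bin multiplied by bin number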
Condition Parameters: c terminus: a fixed tail appended
Give bare numbers.

Worked cases, answers included:
# Mutant Label, Measurement
records = [
    ("A2I", 1.94),
    ("P24L", 2.35),
    ("G11I", 2.73),
]

// batch mode: one protein stability index value per listed entry
1. F10V
2. R7Q
3. G11P
4. A13C
5. P24H
6. A12V
7. P24V
8. P4C

OUTPUT:
4.7
2.62
3.98
2.39
2.96
2.55
2.51
2.48

Each of the following entries comes with a recorded value; kindly state protein stability index for each.
1. P4G
2. T18V
3. F10L
4. T18C
5. P9L
6. P24Y
7. A2T

OUTPUT:
1: 2.01; 2: 2.76; 3: 4.12; 4: 2.92; 5: 1.91; 6: 2.86; 7: 3.09

Hi there! I need protein stability index for each item below, if you can.
1. Q3I
2. G11E
3. G11Y
4. A2W
5. R7H
6. Q3S
7. V15C
8. V15G

OUTPUT:
1. 2.55
2. 3.43
3. 2.91
4. 2.45
5. 2.81
6. 3.61
7. 3.21
8. 2.96

Below are some variants; for each one, tell me its protein stability index.
1. A13W
2. L20A
3. A13P
4. G11N
5. Q19F
6. P16Q

OUTPUT:
1. 1.62
2. 3.28
3. 3.76
4. 3.67
5. 2.64
6. 3.19
